# Target desc: T1, EsCas13d, nuclease-dead (Eubacterium siraeum, UniProt B0MS50, R295A;H300A;R849A;H854A)
# T1 sequence: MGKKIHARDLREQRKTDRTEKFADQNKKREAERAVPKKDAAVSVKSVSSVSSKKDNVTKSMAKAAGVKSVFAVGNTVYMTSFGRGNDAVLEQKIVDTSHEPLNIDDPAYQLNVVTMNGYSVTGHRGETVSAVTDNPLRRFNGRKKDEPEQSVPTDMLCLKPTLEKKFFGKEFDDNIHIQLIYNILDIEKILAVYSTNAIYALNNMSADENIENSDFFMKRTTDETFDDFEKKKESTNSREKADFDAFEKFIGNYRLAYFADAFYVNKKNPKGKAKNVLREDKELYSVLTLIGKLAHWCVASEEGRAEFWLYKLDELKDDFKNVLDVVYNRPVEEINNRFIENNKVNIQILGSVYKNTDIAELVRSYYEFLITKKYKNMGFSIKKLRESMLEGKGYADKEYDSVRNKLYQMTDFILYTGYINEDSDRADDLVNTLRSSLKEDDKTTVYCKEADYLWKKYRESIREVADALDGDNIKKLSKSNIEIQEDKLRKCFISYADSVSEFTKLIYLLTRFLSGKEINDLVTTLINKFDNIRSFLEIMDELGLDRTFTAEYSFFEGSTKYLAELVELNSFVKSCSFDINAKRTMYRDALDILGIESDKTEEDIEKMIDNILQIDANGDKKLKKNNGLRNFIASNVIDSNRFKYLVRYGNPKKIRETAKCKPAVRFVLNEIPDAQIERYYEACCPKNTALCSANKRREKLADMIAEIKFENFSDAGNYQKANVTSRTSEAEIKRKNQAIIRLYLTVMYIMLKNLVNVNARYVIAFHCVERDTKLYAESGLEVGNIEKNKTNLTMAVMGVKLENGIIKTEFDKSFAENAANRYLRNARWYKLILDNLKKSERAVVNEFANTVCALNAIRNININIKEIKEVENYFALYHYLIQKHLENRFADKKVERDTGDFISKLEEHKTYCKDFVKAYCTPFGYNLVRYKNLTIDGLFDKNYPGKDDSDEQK
# Measurement description: crRNA (strand 1, pre-loaded); Mg2+; 40 mM Tris-HCl pH 7.5, 150 mM NaCl, 6 mM MgCl2, 1 mM DTT, 0.1% Tween-20, 0.2 mg/ml BSA; 25 C; 10 min per concentration, then washed
# Measurement context: tags: His6-TwinStrep-SUMO cleaved; N-terminal SNAP kept (SNAP-Surface 488); label: 3' end held by stalled T7 RNA polymerase
Endpoint: Kd (nM)
Your answer should be a plain number; it is taken to be in nM.

Input: GET /values?readout=Kd&item= target 2 MT 5'PFS AAA 3'PFS CUG (mixed) RNA 1: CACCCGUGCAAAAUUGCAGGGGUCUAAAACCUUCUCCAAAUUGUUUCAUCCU RNA 2: GGGAAUGGAUCCACAUCUACGAAUUCAAAAGGAUGAAACAAUUUGGAGAAGCUGAGAUCGGAAGAGCACACGU
Output: 5.5

Input: Would you mind telling me what Kd value was observed for target 1 insC 3' of 8,insU 3' of 2 (mixed) RNA 1: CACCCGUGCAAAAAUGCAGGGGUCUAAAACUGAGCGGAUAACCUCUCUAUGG RNA 2: GGGAAUGGAUCCACAUCUACGAAUUCGUACCAUAGAGAGGUUAUCCCGCUCUACCGAGAUCGGAAGAGCACACGU ?
Output: 21.3

Input: # lookup: Kd of target 3 A12G,U22A (mixed) RNA 1: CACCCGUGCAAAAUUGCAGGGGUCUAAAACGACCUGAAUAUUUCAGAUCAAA RNA 2: GGGAAUGGAUCCACAUCUACGAAUUCGUUAUUGAUCUGAGAUAUUCAGGUCUGCAGAUCGGAAGAGCACACGU
Output: 40.5

Input: I have this binder here, target 1 insA 3' of 17,insG 3' of 8 (mixed) RNA 1: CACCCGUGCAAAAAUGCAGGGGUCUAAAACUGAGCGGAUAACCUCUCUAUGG RNA 2: GGGAAUGGAUCCACAUCUACGAAUUCGUACCAUAGAAGAGGUUAUGCCGCUCACCGAGAUCGGAAGAGCACACGU , and I need its recorded Kd.
Output: 14.7
